Hey, just so you know, these numbers are from paper PMC7939474.

Target: UniProtKB Q9KNE0
measured quantity: Kd (mM)
Answers are plain numbers, in mM.

Exercise: Find the recorded Kd belonging to O=C(O)CCC(=O)O [succinate] and report it.
Solution: 4.3
